Target: CDK2/Cyclin A (Homo sapiens, UniProt P24941)
Experiment: Inhibition of CDK2/Cyclin A Retinoblastoma Kinase Activity
Conditions: apparent Ki, CDK2/proteolyzed cyclin A, Rb fragment substrate, 25 μM ATP
Structures can show the parent of a compound that is named as a salt.
measure: Ki

Example cases with answers are listed next.
INSERT INTO results (compound, reported_value) VALUES
  ('Nc1nc(NC2CCN(S(=O)(=O)c3cnc(OCCN4CCCCC4)nc3)CC2)sc1C(=O)c1c(F)cccc1F [Example H23, Trifluoroacetic Acid Salt]', '1.5 nM'),
  ('COc1ccc(OC)c(NC(=O)N2CCC(Nc3nc(N)c(C(=O)c4c(F)cccc4F)s3)CC2)c1 [Example B4]', '66 nM');

Now for a further compound.
response.value for CC1CCC(NCCS(=O)(=O)N2CCC(Nc3nc(N)c(C(=O)c4c(F)cccc4F)s3)CC2)CC1 (mixture of isomers) [Example K40] (field: Ki) = 0.51 nM

----------
Molecular target: human CDK4 and genetically truncated (1-264) cyclin D3 (Homo sapiens, UniProt P11802)
Sequence (P11802 whole entry, the tested form may be a part): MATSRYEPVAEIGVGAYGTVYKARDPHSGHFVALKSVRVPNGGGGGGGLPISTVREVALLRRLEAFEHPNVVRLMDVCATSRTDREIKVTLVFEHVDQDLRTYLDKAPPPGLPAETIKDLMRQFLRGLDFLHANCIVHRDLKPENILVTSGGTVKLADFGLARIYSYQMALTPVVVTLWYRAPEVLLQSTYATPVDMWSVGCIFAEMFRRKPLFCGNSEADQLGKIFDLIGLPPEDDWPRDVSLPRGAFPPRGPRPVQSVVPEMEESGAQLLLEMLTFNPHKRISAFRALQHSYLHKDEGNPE
Sequence (P30281 1-264 partner): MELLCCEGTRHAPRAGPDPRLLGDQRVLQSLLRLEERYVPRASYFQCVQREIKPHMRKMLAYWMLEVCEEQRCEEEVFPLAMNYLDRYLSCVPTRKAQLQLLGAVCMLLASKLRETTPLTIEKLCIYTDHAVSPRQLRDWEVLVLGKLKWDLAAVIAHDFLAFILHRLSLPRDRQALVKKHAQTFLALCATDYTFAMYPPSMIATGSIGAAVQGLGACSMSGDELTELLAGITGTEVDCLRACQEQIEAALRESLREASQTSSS
Assay: Inhibition of CDK4/Cyclin D Retinoblastoma Kinase Activity
Type: biochemical
Conditions: at 0.03 μM
Please provide measured CDK4 % Inhibition at 0.03 μM for the entries that follow.
One number for each entry, in %.

INSERT INTO results (compound, tested_on, measure, measurement_units, reported_value) VALUES
  ('CC(=Cc1ccccc1)C(=O)N1CCC(Nc2nc(N)c(C(=O)c3c(F)cccc3F)s2)CC1 [Example R161]', 'human CDK4 and genetically truncated (1-264) cyclin D3 (Homo sapiens, UniProt P11802)', 'CDK4 % Inhibition at 0.03 μM', '%', 53);

# batch: return CDK4 % Inhibition at 0.03 μM for each of the 3 compounds below
1. CCCCC(CC)C(=O)N1CCC(Nc2nc(N)c(C(=O)c3c(F)cccc3F)s2)CC1 (stereo not shown) [Example R168]
2. CCCCC(C)C(=O)N1CCC(Nc2nc(N)c(C(=O)c3c(F)cccc3F)s2)CC1 (stereo not shown) [Example R167]
3. Cc1cc(C(=O)N2CCC(Nc3nc(N)c(C(=O)c4c(F)cccc4F)s3)CC2)no1 [Example R64]

Response line:
["−4", 11, 10]

----------
Molecular target: human CDK4 and genetically truncated (1-264) cyclin D3 (Homo sapiens)
Experiment: Inhibition of CDK4/Cyclin D Retinoblastoma Kinase Activity
Type: biochemical
Details: 0.03 μM compound; Table 2
Please provide measured CDK4 % Inhibition at 0.03 μM for the entries that follow.

INSERT INTO measurements (smiles_string, reported_value) VALUES
  ('COc1cc(NC(=O)N2CCC(Nc3nc(N)c(C(=O)c4c(F)cccc4F)s3)CC2)cc(OC)c1OC', '12%'),
  ('Nc1nc(NC2CCN(C(=O)Nc3cccc(F)c3)CC2)sc1C(=O)c1c(F)cccc1F', '8%'),
  ('CCOC(=O)CCNC(=O)N1CCC(Nc2nc(N)c(C(=O)c3c(F)cccc3F)s2)CC1', '4%');

Now for a further compound.
response.value for `Cc1ccccc1NC(=O)N1CCC(Nc2nc(N)c(C(=O)c3c(F)cccc3F)s2)CC1` (field: CDK4 % Inhibition at 0.03 μM) = 6%

----------
System: HCT-116 cell line
Experiment: Inhibition of cell growth, tetrazolium salt (MTT) assay
Assay type: cell-based
Conditions: 0.1 μM compound; HCT-116; Table 3
measure: HCT-116 % Inhibition at 0.1 μM (%)
Numbers only, in %.

Example cases with answers are listed next.
INSERT INTO assay_data (smiles_string, measurement_units, reported_value) VALUES
  ('CCCCOc1ccc(C(C)(C)CC)cc1S(=O)(=O)N1CCC(Nc2nc(N)c(C(=O)c3c(F)cccc3F)s2)CC1', '%', 19),
  ('Nc1nc(NC2CCN(S(=O)(=O)c3ccc(Sc4ccncc4)cc3)CC2)sc1C(=O)c1c(F)cccc1F', '%', 9),
  ('CS(=O)(=O)c1ccc(S(=O)(=O)N2CCC(Nc3nc(N)c(C(=O)c4c(F)cccc4F)s3)CC2)cc1', '%', 15),
  ('Nc1nc(NC2CCN(S(=O)(=O)c3cccc4cccnc34)CC2)sc1C(=O)c1c(F)cccc1F', '%', 22),
  ('Nc1nc(NC2CCN(S(=O)(=O)c3ccc(S(=O)(=O)c4ccccc4)s3)CC2)sc1C(=O)c1c(F)cccc1F', '%', 3);

# batch: return HCT-116 % Inhibition at 0.1 μM for each of the 4 molecules below
1. Nc1nc(NC2CCN(S(=O)(=O)c3ccc(Cl)c([N+](=O)[O-])c3)CC2)sc1C(=O)c1c(F)cccc1F
2. Cc1c(S(=O)(=O)N2CCC(Nc3nc(N)c(C(=O)c4c(F)cccc4F)s3)CC2)sc2ccc(Cl)cc12
3. Nc1nc(NC2CCN(S(=O)(=O)c3ccc(F)cc3F)CC2)sc1C(=O)c1c(F)cccc1F
4. Nc1nc(NC2CCN(S(=O)(=O)c3ccc(Cl)s3)CC2)sc1C(=O)c1c(F)cccc1F

Response line:
1. 30
2. 13
3. 8
4. 8

# batch: return HCT-116 % Inhibition at 0.1 μM for each of the 8 molecules below
1. Nc1nc(NC2CCN(S(=O)(=O)c3ccccc3F)CC2)sc1C(=O)c1c(F)cccc1F
2. Cc1noc(C)c1S(=O)(=O)N1CCC(Nc2nc(N)c(C(=O)c3c(F)cccc3F)s2)CC1
3. Nc1nc(NC2CCN(S(=O)(=O)c3ccc(C(=O)O)cc3)CC2)sc1C(=O)c1c(F)cccc1F
4. Nc1nc(NC2CCN(S(=O)(=O)c3ccc(Cl)cc3)CC2)sc1C(=O)c1c(F)cccc1F
5. Nc1nc(NC2CCN(S(=O)(=O)c3c(Cl)cc(Cl)cc3Cl)CC2)sc1C(=O)c1c(F)cccc1F
6. Nc1nc(NC2CCN(S(=O)(=O)c3ccc(F)cc3Cl)CC2)sc1C(=O)c1c(F)cccc1F
7. Nc1nc(NC2CCN(S(=O)(=O)c3cc(S(=O)(=O)c4ccccc4)cs3)CC2)sc1C(=O)c1c(F)cccc1F
8. Nc1nc(NC2CCN(S(=O)(=O)c3ccc(Cl)c4nonc34)CC2)sc1C(=O)c1c(F)cccc1F

Response line:
13
18
19
23
9
20
0
27

# batch: return HCT-116 % Inhibition at 0.1 μM for each of the 3 molecules below
1. Nc1nc(NC2CCN(S(=O)(=O)c3ccc(-c4ccccn4)s3)CC2)sc1C(=O)c1c(F)cccc1F
2. N#Cc1ccccc1S(=O)(=O)N1CCC(Nc2nc(N)c(C(=O)c3c(F)cccc3F)s2)CC1
3. Nc1nc(NC2CCN(S(=O)(=O)c3ccc(Oc4ccc(I)cc4)cc3)CC2)sc1C(=O)c1c(F)cccc1F

Response line:
14
24
7

# batch: return HCT-116 % Inhibition at 0.1 μM for each of the 5 molecules below
1. Nc1nc(NC2CCN(S(=O)(=O)c3ccc(CNC(=O)c4ccc(Cl)cc4)s3)CC2)sc1C(=O)c1c(F)cccc1F
2. Nc1nc(NC2CCN(S(=O)(=O)c3ccccc3)CC2)sc1C(=O)c1c(F)cccc1F
3. Nc1nc(NC2CCN(S(=O)(=O)c3ccc4ccccc4c3)CC2)sc1C(=O)c1c(F)cccc1F
4. Nc1nc(NC2CCN(S(=O)(=O)c3cccc(C(=O)O)c3)CC2)sc1C(=O)c1c(F)cccc1F
5. Nc1nc(NC2CCN(S(=O)(=O)c3ccc(S(=O)(=O)c4ccc(C(F)(F)F)cn4)s3)CC2)sc1C(=O)c1c(F)cccc1F

Response line:
1. 12
2. 37
3. 17
4. 0
5. 0
